biological target: ErbB2 (Homo sapiens); test: ErbB2 autophosphorylation ELISA, BT474 cells; type: cell-based; conditions: read-out: Cellular IC50, autophosphorylation
Sequence (P04626 23-1255): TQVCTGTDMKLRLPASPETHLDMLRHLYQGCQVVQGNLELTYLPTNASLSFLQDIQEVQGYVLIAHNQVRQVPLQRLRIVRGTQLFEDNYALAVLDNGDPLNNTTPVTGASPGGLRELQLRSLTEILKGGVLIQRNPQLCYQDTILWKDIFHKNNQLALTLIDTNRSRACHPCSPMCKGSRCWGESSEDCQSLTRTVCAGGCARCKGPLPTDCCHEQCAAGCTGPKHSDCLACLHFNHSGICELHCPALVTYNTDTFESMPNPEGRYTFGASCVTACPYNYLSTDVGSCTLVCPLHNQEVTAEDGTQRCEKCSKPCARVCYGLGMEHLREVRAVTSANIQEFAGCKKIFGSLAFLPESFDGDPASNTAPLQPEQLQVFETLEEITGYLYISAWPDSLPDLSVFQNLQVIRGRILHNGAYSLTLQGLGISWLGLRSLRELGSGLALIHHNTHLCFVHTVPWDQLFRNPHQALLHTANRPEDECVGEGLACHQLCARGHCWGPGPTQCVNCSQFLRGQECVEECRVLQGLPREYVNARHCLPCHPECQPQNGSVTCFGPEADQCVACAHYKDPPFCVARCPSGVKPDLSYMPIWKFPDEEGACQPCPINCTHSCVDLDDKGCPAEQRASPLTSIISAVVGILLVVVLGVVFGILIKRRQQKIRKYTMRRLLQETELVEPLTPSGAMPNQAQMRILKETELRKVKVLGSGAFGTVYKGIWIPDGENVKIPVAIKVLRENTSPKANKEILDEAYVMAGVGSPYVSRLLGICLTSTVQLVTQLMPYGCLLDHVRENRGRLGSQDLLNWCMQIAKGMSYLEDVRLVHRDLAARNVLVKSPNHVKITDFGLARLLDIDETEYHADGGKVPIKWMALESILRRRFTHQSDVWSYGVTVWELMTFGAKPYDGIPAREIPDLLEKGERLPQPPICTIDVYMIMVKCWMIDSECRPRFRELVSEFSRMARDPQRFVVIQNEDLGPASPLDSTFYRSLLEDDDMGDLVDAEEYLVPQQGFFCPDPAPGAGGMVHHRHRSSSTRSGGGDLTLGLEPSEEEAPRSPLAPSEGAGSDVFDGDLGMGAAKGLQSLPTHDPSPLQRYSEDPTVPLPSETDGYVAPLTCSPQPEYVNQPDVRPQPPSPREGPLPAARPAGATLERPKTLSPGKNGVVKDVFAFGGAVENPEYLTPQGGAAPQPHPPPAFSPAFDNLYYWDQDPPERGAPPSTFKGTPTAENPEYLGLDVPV
READOUT_LABEL: IC50 (nM)
Quick reminder: number only, in nM, skip the unit.

Problem: What value of measured IC50 is listed for COc1cc2c(Nc3ccc(Cl)c(Cl)c3F)ncnc2cc1OC[C@@H]1C[C@@H]2CN(C)C[C@@H]2C1 ?
Solution: 552

====

assay: in vivo; parameters: species or system mice, rats, dogs, and monkeys; details: mouse, rat, dog, monkey
READOUT_LABEL: half-life

Problem: What value of measured half-life is listed for COc1cc2c(Nc3ccc(Cl)c(Cl)c3F)ncnc2cc1OC[C@@H]1C[C@@H]2CN(C)C[C@@H]2C1 ?
Solution: 9.41 to 20.9 h

====

experiment: in vivo; settings: female, monkey, po, 50 mg/kg
READOUT_LABEL: half-life (h)
Quick reminder: number only, in h, skip the unit.

Problem: What value of measured half-life is listed for COc1cc2c(Nc3ccc(Cl)c(Cl)c3F)ncnc2cc1OC[C@@H]1C[C@@H]2CN(C)C[C@@H]2C1 [XL-647] ?
Solution: 14.8

====

test: in vivo; conditions: female, monkey, po, 2 mg/kg
READOUT_LABEL: Cmax (ng/mL)
Quick reminder: number only, in ng/mL, skip the unit.

Problem: What value of measured Cmax is listed for COc1cc2c(Nc3ccc(Cl)c(Cl)c3F)ncnc2cc1OC[C@@H]1C[C@@H]2CN(C)C[C@@H]2C1 [XL-647] ?
Solution: 38

====

Assay: Clinical Study XL-647-001 (Phase 1, Intermittent 5&9 schedule)
Conditions: human, in vivo
Method: Enrollment is complete, and all subjects have been off study as of 31 May 2007. Subjects initially received a powder in bottle (PIB) formulation using mass-based dosing. […] The final cohort received a fixed dose of 350 mg in a tablet formulation.
READOUT_LABEL: MTD (mg/kg)
Quick reminder: number only, in mg/kg, skip the unit.

Problem: What value of measured MTD is listed for COc1cc2c(Nc3ccc(Cl)c(Cl)c3F)ncnc2cc1OC[C@@H]1C[C@@H]2CN(C)C[C@@H]2C1 [XL-647] ?
Solution: 4.68

====

target: KDR (Homo sapiens); assay: Cellular autophosphorylation assay; assay type: cell-based
Sequence (P35968 20-1356, species assumed): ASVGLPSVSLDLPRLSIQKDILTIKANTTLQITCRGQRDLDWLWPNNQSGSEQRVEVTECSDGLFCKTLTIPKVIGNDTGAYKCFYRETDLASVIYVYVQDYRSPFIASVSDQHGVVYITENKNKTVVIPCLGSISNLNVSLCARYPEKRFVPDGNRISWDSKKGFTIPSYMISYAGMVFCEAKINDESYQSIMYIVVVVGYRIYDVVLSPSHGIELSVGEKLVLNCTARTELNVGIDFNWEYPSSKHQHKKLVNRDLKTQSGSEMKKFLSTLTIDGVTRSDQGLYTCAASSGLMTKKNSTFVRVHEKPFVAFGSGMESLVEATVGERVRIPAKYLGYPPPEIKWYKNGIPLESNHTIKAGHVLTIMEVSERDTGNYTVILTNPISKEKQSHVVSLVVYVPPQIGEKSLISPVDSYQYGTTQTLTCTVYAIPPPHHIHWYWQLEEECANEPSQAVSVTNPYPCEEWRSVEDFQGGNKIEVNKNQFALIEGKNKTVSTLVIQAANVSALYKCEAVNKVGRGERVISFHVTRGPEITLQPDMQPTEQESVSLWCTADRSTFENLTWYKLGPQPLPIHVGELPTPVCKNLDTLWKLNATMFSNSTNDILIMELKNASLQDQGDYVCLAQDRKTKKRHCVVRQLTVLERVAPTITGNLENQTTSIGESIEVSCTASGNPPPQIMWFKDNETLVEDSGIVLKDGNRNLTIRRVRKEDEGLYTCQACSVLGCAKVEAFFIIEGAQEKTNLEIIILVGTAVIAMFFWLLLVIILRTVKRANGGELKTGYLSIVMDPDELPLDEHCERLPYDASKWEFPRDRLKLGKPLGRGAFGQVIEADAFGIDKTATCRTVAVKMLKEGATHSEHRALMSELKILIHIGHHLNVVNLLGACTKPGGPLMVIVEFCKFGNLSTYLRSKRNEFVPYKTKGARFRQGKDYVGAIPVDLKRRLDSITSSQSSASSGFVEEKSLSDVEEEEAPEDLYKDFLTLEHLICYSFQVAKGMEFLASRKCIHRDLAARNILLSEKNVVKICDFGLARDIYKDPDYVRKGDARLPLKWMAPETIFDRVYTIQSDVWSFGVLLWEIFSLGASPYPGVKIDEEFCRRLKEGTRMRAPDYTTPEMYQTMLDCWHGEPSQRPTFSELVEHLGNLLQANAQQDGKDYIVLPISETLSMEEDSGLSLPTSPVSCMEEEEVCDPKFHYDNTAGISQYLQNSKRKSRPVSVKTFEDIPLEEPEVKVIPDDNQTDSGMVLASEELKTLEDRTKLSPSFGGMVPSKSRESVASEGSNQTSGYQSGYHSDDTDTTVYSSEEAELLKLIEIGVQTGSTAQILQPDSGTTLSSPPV
READOUT_LABEL: IC50 (nM)
Quick reminder: number only, in nM, skip the unit.

Problem: What value of measured IC50 is listed for COc1cc2c(Nc3ccc(Cl)c(Cl)c3F)ncnc2cc1OC[C@@H]1C[C@@H]2CN(C)C[C@@H]2C1 ?
Solution: 137

====

assay: in vivo; conditions: rat, po, 1 mg/kg
READOUT_LABEL: half-life (h)
Quick reminder: number only, in h, skip the unit.

Problem: What value of measured half-life is listed for COc1cc2c(Nc3ccc(Cl)c(Cl)c3F)ncnc2cc1OC[C@@H]1C[C@@H]2CN(C)C[C@@H]2C1 ?
Solution: 14.4

====

experiment: in vivo; conditions: male, monkey, po, 50 mg/kg
READOUT_LABEL: half-life (h)
Quick reminder: number only, in h, skip the unit.

Problem: What value of measured half-life is listed for COc1cc2c(Nc3ccc(Cl)c(Cl)c3F)ncnc2cc1OC[C@@H]1C[C@@H]2CN(C)C[C@@H]2C1 ?
Solution: 20.5

====

assay: in vivo; conditions: female, monkey, po, 20 mg/kg
READOUT_LABEL: AUC(0-t) (µg·h/mL)
Quick reminder: number only, in µg·h/mL, skip the unit.

Problem: What value of measured AUC(0-t) is listed for COc1cc2c(Nc3ccc(Cl)c(Cl)c3F)ncnc2cc1OC[C@@H]1C[C@@H]2CN(C)C[C@@H]2C1 ?
Solution: 3.91

====

Target: EphB4 (Homo sapiens, UniProt P54760)
Construct: residues E605-E890 of human EphB4 containing a six histidine NH2-terminal tag; His6 (N); made in house; host or cells: baculovirus expression system
Sequence (P54760 605-890): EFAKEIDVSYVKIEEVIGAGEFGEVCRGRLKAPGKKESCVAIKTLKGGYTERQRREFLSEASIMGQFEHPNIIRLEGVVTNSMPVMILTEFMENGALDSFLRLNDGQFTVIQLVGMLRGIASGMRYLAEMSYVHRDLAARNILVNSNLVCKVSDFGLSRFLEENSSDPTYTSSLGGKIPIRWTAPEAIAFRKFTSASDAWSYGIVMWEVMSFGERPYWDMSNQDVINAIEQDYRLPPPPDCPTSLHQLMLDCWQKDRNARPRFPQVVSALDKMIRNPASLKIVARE
Experiment: Radiometric 33P-phosphoryl transfer kinase assay
Type: biochemical
Conditions: ATP at Km
READOUT_LABEL: IC50 (nM)
Quick reminder: number only, in nM, skip the unit.

Problem: Which measured IC50 belongs to COc1cc2c(Nc3ccc(Cl)c(Cl)c3F)ncnc2cc1OC[C@@H]1C[C@@H]2CN(C)C[C@@H]2C1 , tested on EphB4 (Homo sapiens, UniProt P54760)?
Solution: 1.4

====

target: PDGFRβ (Homo sapiens, UniProt P09619); experiment: Cellular autophosphorylation assay; format: cell-based
Sequence (P09619 33-1106, species assumed): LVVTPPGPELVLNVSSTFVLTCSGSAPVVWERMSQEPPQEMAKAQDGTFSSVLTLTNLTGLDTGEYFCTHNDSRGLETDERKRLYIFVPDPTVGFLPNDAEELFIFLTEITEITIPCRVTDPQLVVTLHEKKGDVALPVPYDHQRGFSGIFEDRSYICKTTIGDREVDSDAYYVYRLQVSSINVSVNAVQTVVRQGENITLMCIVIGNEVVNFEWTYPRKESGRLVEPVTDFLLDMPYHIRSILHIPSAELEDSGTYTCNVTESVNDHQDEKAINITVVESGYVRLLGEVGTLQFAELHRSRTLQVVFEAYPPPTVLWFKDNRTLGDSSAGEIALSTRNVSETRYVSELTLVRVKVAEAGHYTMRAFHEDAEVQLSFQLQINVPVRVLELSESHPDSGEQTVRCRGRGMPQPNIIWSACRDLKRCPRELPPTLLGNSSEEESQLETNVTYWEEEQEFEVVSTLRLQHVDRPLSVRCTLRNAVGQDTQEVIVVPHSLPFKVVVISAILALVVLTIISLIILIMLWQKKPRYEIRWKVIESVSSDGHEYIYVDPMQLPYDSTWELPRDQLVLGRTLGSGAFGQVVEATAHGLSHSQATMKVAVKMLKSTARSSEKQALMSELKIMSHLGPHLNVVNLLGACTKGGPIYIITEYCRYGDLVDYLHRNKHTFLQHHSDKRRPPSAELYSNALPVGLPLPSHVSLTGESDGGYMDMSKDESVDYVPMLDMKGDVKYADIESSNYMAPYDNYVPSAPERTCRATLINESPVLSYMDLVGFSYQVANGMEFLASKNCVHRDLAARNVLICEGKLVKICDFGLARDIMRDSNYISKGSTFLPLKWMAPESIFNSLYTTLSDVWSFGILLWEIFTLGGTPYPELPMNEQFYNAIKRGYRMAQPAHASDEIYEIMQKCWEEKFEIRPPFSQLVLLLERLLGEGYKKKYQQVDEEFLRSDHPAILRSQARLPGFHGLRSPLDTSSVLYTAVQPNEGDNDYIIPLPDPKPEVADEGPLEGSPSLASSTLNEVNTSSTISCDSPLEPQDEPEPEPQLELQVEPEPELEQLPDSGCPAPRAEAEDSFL
pIC50: −log10 of the molar value.
READOUT_LABEL: pIC50

Problem: What value of measured pIC50 is listed for COc1cc2c(Nc3ccc(Cl)c(Cl)c3F)ncnc2cc1OC[C@@H]1C[C@@H]2CN(C)C[C@@H]2C1 [XL-647] ?
Solution: < 5.92

====

test: in vivo; conditions: male, dog, po, 100 mg/kg
READOUT_LABEL: Cmax
# answer = value followed by unit

Problem: What value of measured Cmax is listed for COc1cc2c(Nc3ccc(Cl)c(Cl)c3F)ncnc2cc1OC[C@@H]1C[C@@H]2CN(C)C[C@@H]2C1 ?
Solution: 407 ng/mL

====

Molecular target: EphA2 (Homo sapiens, UniProt P29317)
Construct: Human, N598-; mM MgCl2, 3 mM MnCl2,; R890, N-His6; His6 (N)
Sequence (P29317 598-890): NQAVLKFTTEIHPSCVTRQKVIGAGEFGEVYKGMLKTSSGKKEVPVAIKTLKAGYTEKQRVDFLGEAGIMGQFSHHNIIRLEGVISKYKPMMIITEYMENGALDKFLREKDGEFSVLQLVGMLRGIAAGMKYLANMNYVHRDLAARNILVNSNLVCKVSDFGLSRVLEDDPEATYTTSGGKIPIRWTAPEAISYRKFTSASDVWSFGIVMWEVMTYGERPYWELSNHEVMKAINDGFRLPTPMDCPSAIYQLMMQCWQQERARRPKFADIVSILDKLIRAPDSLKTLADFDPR
Assay: Chemiluminescent kinase assay
Assay type: biochemical
READOUT_LABEL: IC50
# answer = value followed by unit

Problem: What value of measured IC50 is listed for COc1cc2c(Nc3ccc(Cl)c(Cl)c3F)ncnc2cc1OC[C@@H]1C[C@@H]2CN(C)C[C@@H]2C1 ?
Solution: 6.8 nM

====

assay: in vivo; conditions: rat, po, 1 mg/kg
READOUT_LABEL: AUC(0-t)
# answer = value followed by unit

Problem: What value of measured AUC(0-t) is listed for COc1cc2c(Nc3ccc(Cl)c(Cl)c3F)ncnc2cc1OC[C@@H]1C[C@@H]2CN(C)C[C@@H]2C1 ?
Solution: 198 ng·h/mL

====

target: PDGFR-α (Homo sapiens)
READOUT_LABEL: IC50
# answer = value followed by unit

Problem: What value of measured IC50 is listed for COc1cc2c(Nc3ccc(Cl)c(Cl)c3F)ncnc2cc1OC[C@@H]1C[C@@H]2CN(C)C[C@@H]2C1 ?
Solution: 64.4 nM

====

biological target: UniProtKB P04626
READOUT_LABEL: pKi
The scale used: pKi is minus the common logarithm of the concentration in molar units.

Problem: Which measured pKi belongs to COc1cc2c(Nc3ccc(Cl)c(Cl)c3F)ncnc2cc1OC[C@@H]1C[C@@H]2CN(C)C[C@@H]2C1 , tested on UniProtKB P04626?
Solution: 8.52

====

molecular target: PKC-ε (Homo sapiens)
Sequence (Q02156 whole entry): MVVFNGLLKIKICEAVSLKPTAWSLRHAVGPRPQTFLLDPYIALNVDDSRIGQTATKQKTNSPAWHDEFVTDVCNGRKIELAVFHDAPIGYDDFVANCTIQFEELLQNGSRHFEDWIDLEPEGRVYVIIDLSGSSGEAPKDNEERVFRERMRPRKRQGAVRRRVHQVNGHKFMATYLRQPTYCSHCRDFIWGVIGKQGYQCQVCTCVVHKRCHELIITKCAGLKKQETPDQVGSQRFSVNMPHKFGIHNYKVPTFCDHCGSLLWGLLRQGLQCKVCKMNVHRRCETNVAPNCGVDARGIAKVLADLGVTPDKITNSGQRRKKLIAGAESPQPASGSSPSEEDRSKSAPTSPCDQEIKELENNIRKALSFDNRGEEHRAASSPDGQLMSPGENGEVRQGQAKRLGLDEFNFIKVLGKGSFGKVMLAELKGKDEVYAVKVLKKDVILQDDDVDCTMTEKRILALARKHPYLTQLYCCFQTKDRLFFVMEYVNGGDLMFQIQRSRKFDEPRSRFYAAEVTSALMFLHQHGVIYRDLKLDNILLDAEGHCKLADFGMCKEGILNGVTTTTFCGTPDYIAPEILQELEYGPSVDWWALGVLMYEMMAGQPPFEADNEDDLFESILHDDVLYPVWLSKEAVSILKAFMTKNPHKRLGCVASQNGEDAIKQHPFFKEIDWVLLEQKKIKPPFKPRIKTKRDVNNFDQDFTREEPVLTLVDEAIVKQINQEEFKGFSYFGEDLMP
pIC50: −log10 of the molar value.
READOUT_LABEL: pIC50

Problem: Which measured pIC50 belongs to COc1cc2c(Nc3ccc(Cl)c(Cl)c3F)ncnc2cc1OC[C@@H]1C[C@@H]2CN(C)C[C@@H]2C1 [XL-647] , tested on PKC-ε (Homo sapiens)?
Solution: < 5.00

====

experiment: in vivo; settings: male, dog, po, 1000 mg/kg
READOUT_LABEL: Cmax (µg/mL)
Quick reminder: number only, in µg/mL, skip the unit.

Problem: What value of measured Cmax is listed for COc1cc2c(Nc3ccc(Cl)c(Cl)c3F)ncnc2cc1OC[C@@H]1C[C@@H]2CN(C)C[C@@H]2C1 [XL-647] ?
Solution: 3.77

====

molecular target: KDR (Homo sapiens, UniProt P35968); test: Luciferase-coupled chemiluminescence kinase assay; assay type: biochemical; parameters: residues D807-V1356 of human KDR, Proqinase; purchased Proqinase; conditions: ATP at Km
Sequence (P35968 807-1356): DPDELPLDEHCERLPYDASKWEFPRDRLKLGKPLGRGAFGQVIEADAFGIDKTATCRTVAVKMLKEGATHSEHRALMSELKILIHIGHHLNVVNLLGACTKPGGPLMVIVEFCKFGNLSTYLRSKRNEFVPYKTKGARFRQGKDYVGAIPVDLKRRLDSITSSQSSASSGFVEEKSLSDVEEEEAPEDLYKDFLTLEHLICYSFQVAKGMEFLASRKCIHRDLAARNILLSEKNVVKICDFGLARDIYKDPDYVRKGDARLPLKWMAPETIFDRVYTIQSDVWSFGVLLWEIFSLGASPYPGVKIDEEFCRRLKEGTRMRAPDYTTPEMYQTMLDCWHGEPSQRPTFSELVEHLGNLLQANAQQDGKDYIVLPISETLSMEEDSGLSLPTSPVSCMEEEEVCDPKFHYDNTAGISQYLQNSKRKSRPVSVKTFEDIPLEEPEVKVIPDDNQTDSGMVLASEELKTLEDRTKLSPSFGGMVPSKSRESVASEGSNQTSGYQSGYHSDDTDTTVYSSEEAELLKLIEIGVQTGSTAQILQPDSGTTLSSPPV
READOUT_LABEL: IC50 (nM)
Quick reminder: number only, in nM, skip the unit.

Problem: What value of measured IC50 is listed for COc1cc2c(Nc3ccc(Cl)c(Cl)c3F)ncnc2cc1OC[C@@H]1C[C@@H]2CN(C)C[C@@H]2C1 ?
Solution: 1.5
